Measured metric: melting point

Compound	Measured metric	Observed value
Cc1ccc(C)c(C(CCC(=O)O)Oc2cc(OCc3ccsc3)ccc2C#N)c1 (racemic)	melting point	135 to 136 °C
O=C(O)[C@H](Cc1c[nH]c2ccccc12)NS(=O)(=O)c1ccc(N2CCC(c3ccccc3)CC2)cc1	melting point	103 to 107 °C
CCOC(=O)N1CCc2nc3c(Cl)cccc3c(C)c2CC1	melting point	169 °C
CC(=O)OCC(C)(C)C(OC(C)=O)C(Oc1ccc(Cl)cc1)n1cncn1 (centres undefined)	melting point	84 to 87 °C
CCN1CCN(CCCC#Cc2cn(Cc3ncc(C)c(OC)c3C)c3nc(N)nc(Cl)c23)CC1	melting point	142 to 144 °C
Cc1cc(CNC(=O)CCl)c(O)c2c1CCC2=O	melting point	166 to 168 °C
COc1ccc(-c2nc(-c3ccccc3)c(N(c3ccccc3)c3ccccc3)s2)cc1	melting point	152 to 155 °C
N#Cc1cnc(N)nc1-c1ccccc1	melting point	147 °C
COCCN1CN(C)C(=O)N(c2nc3c(s2)C(=O)CC(C)(C)C3)C1	melting point	136 to 137 °C
CCOC(=O)C1=C(CS(=O)c2ccccc2)Nc2ccnc(OC(C)C)c2C1c1ccccc1C(F)(F)F (centres undefined)	melting point	206 to 208 °C
c1ccc(-c2nc3cc(-c4nc(COc5ccc(CCCn6ccnc6)cc5)co4)ccc3o2)cc1	melting point	166 to 167 °C
COC(=O)c1ccc(S(C)(=O)=O)nc1OC	melting point	88 to 90 °C
C[C@H](c1ccccc1CCn1cncn1)N(c1cc(F)ccc1F)S(=O)(=O)c1ccc(Cl)cc1	melting point	116 to 118 °C
COc1cc(C=Cc2cc(OC)c(OC)c(OC)c2)cc(Br)c1OC	melting point	180 to 182 °C
O=C(CN1CCN(C(c2ccc(F)cc2)c2ccc(F)cc2)CC1)Nc1cccc2ccccc12	melting point	173 °C
Brc1ccc(OCc2ccccc2)cc1OCc1ccccc1	melting point	37 to 38 °C
Cc1cc(C)c2nc(CCCCl)n(-c3ccc(C(C(=O)O)C4CCCC4)cc3)c2n1 (centres undefined)	melting point	214 °C
COc1ccc(-c2c(C(C)=O)c(C)nc3cc(OC)c(OC)cc23)cc1OC	melting point	210 to 211 °C
O=C(O)COCOc1cc(Cl)cc(Cl)c1	melting point	79 to 82 °C
Cc1nc2c(c3c1[nH]c1ccccc13)C(=NO)CC(C)(C)C2	melting point	293 to 294 °C
C(#Cc1ccccc1)C1=CCN(Cc2c[nH]c3ncccc23)CC1	melting point	198 to 200 °C
COc1ccc(Cl)cc1C1(F)C(=O)Nc2c(C(F)(F)F)cccc21 (centres undefined)	melting point	230 to 233 °C
O=C(Nc1ccccc1)Nc1ccc(Cl)cc1C(=O)c1ccccc1	melting point	145 to 147 °C
CS(=O)CC(=O)Nc1c(C(=O)c2ccccc2)[nH]c2cc(Cl)ccc12 (centres undefined)	melting point	191 to 192 °C
CCOC(=O)c1snc(OCC)c1Br	melting point	40 to 43 °C
CC1CN(C(=O)N(c2ccccc2)c2ccccc2)CCN1C(=O)N(c1ccccc1)c1ccccc1 (centres undefined)	melting point	200 to 202 °C
CCC(=O)c1cc(C2(c3cccc(-c4cccnc4F)c3)N=C(N)N(C)C2=O)cn1CC(F)(F)F (centres undefined)	melting point	108 to 110 °C
CCCC(=O)NCCc1c[nH]c2ccc(OCCN3CCCCC3)cc12	melting point	113 to 114 °C
Cc1nn(Cc2ccccc2)c2c1C(=O)CC(C)(C)C2	melting point	133 to 134 °C
COC(=O)N1CCN(c2ccn3nc(-c4ccccc4)c(-c4ccc(=O)n(C(C)C)n4)c3c2)CC1	melting point	206 to 207 °C
CCNC(=O)[C@@H]1C[C@H](SCc2ccc(OC)cc2)CN1C(=O)OC(C)(C)C	melting point	92 to 94 °C
COc1ccc(C(c2ccc(OC)c(O)c2)n2cncn2)cc1O	melting point	218 to 219 °C
O=C1NCC(c2cccs2)SCC1N1C(=O)c2ccccc2C1=O (centres undefined)	melting point	183 to 184 °C
COC(C)(CN(c1c(C)cccc1Cl)S(C)(=O)=O)OC	melting point	84 °C
NC(=O)C1(CCCCCCCCCCCCC2(C(=O)O)CC2)CC1	melting point	117 to 118 °C
Cc1c(OCCBr)ccc2c(=O)cc(N3CCOCC3)oc12	melting point	210 to 212 °C
CNC(=O)C(=O)c1ccccc1COc1cc(C)ccc1C	melting point	129 to 130 °C
COc1cc(OC)c2c(=O)[nH]c(-c3ccc(N4CCN(C)CC4)cc3)nc2c1	melting point	252 to 254 °C
O=C(NCCO)c1cccc(-c2ccc3c(c2)C(Oc2cccc(C(F)(F)F)c2)CC3)c1 (centres undefined)	melting point	157 to 158 °C

====

Each record here notes measured melting point.

Compound	melting point
CCCCCCCCCCCCCCCCn1c(-c2ccc(Cl)c(N)c2)nc2ccccc21	162 to 163 °C
CC(O)c1sc(S(N)(=O)=O)cc1S(C)(=O)=O (centres undefined)	121 to 127 °C
CC1(C)C(=O)Nc2ccc(NC(=O)c3ccncc3)cc21	> 300 °C
CC(=O)OCC(=O)C12OCOC1CC1C3CCC4=CC(=O)CCC4(C)C3(Cl)C(O)CC12C (centres undefined)	231 °C
O=S(=O)(CCCCCOc1ccc(C2=C(c3ccccc3)CCCc3cc(OC4CCCCO4)ccc32)cc1)CCCC(F)(F)C(F)(F)F (centres undefined)	107 to 110 °C
COc1ccc(/C=C/c2ccncc2)c2c1OC(C)(C)C2	110 to 113 °C
O=C1c2ccccc2S(=O)(=O)N1CCCCN1CCN(c2cc(O)cc3c2OCCO3)CC1	179 to 181 °C
Cc1c(F)c(F)c(-n2ncc(C#N)c2N)c(F)c1F	169 to 170 °C
Clc1ccc(CNc2nc(NC3CCCc4ccccc43)c3ccccc3n2)cc1 (centres undefined)	166 to 167 °C

====

Molecule	melting point
CC(C)C(N)=C(C#N)C(N)=S	112 to 114 °C
O=C(NCc1ccc([N+](=O)[O-])cc1)OCc1ccccc1	92 to 93 °C
ON=Cc1ccc(-c2ccc(O)cc2)c2ccccc12	200 °C
CCCCCC(C)C(C)c1cc(O)c2c(c1)OC(C)(C)C1=C2CN(CC(=O)Nc2ccc(Cl)cc2)CC1 (configuration not stated)	159 to 160 °C
CNc1cccc(Cl)n1	63.5 to 64.5 °C
CS(=O)(=O)c1ccc(-n2cc(-c3cccc(F)c3)nc2-c2ccc(Cl)cc2)cc1	194 to 196 °C
CCCCC1=C(Cl)C(=O)c2ccccc2C1=O	69 to 70 °C
CCC(CC)n1c(=O)ccc2cnc(S(C)=O)nc21 (configuration not stated)	111 to 114 °C
CC(C)CN(C[C@H](O)COc1cccc2[nH]c3ccccc3c12)c1ccc(OC(C)(C)C(N)=O)cc1	84 to 86 °C
c1ccc(-c2nc(COc3ccc(CCCn4ccnc4)cc3)cs2)cc1	110 to 111 °C
COC(=O)C(=CN(C)C)N(C)c1cc(-c2cccc(OC)c2)ncn1	172 to 174 °C
NC(=O)NC1CCN2CCc3ccccc3C2C1 (configuration not stated)	235 °C
COc1cc(NC(=O)C#Cc2ccc(C(F)(F)F)cc2Cl)ccc1OCCN1CCC(OC)CC1	195 to 197 °C
CCc1cc(CC)c(-c2c(OCCl)c(C)nn(C)c2=O)c(CC)c1	103 to 104 °C
CCOc1ccc2c(c1)c(CC(C)NC(=O)OC(C)(C)C)c1n2CCC1 (configuration not stated)	89 to 90 °C
COC(=O)C(Cc1cc(C(C)(C)C)c(O)c(C)c1C)C(=O)OC	140 to 143 °C
CC(=O)c1ccc2c(c1)CC(NC(=O)C(F)(F)F)C2 (configuration not stated)	112 to 114 °C
O=C(O)CNC(=O)CSC(=O)c1ccccc1	140 to 142 °C
COc1ccc(NC(=O)CBr)c(C(=O)O)c1	172 to 173 °C
CC(C)(C)c1ccc(C(=O)Nc2cn3cc(C#N)ccc3n2)cc1	300 to 301 °C
CNC(=O)C(=NOC)c1ccccc1ON=C(C)c1cccc(C)c1	109 to 111 °C
O=C1c2c(O)ccc(O)c2-c2nn(CC(O)CO)c3ccc(NCCNCCO)c1c23 (configuration not stated)	184 to 188 °C

====

Each record here notes measured melting point.
Measured metric: melting point (°C)

Molecule	Observed value
COc1ccc(Cc2nc3c(cnn3C(CCCc3ccccc3)C(C)=O)c(=O)[nH]2)cc1 (centres undefined)	129
C=C(Oc1cc(-n2c(=O)cc(C(F)(F)F)n(N)c2=O)c(F)cc1Cl)C(=O)OC	66
CCCCCCCCCCCCCCCC1CCCC(c2ccc(N)cc2)(c2ccc(N)cc2)C1 (centres undefined)	107
CN(C(=O)c1nn(-c2ccc(Cl)cc2Cl)c(-c2ccc(Cl)cc2)c1F)N1CCCCC1	184
